Tested on: MCF7
experimental-details: Anticancer activity against estrogen-positive human MCF7 cells after 18 hrs by MTT assay
Assay type: functional, cell-based
condition-info: MCF7, 18 h
pIC50: −log10 of the molar value.
measured-parameter: pIC50

Take a look at these entries with their results.
| mol-smiles | recorded-number |
| --- | --- |
| C=C1[C@@H](OC(=O)CCc2ccccc2)C[C@H](OC(C)=O)[C@]2(C)[C@@H]1C[C@@H]1C[C@H](OC(C)=O)C(C)=C([C@@H](OC(C)=O)[C@@H]2OC(C)=O)C1(C)C | 4.82 |
| CC/C(=C(\c1ccccc1)c1ccc(OCCN(C)C)cc1)c1ccccc1 | 4.92 |
| C=C1[C@@H](OC(=O)CCc2cccnc2)C[C@H](OC(C)=O)[C@]2(C)[C@@H]1C[C@@H]1C[C@H](OC(C)=O)C(C)=C([C@@H](OC(C)=O)[C@@H]2OC(C)=O)C1(C)C | 4.41 |
| C=C1[C@@H](OC(=O)Cc2ccccn2)C[C@H](OC(C)=O)[C@]2(C)[C@@H]1C[C@@H]1C[C@H](OC(C)=O)C(C)=C([C@@H](OC(C)=O)[C@@H]2OC(C)=O)C1(C)C | 4.55 |

a. C=C1[C@@H](OC(=O)/C=C/c2ccccc2)C[C@H](OC(C)=O)[C@]2(C)[C@@H]1C[C@@H]1C[C@H](OC(C)=O)C(C)=C([C@@H](OC(C)=O)[C@@H]2OC(C)=O)C1(C)C
b. C=C1[C@@H](OC(=O)/C=C/c2cccnc2)C[C@H](OC(C)=O)[C@]2(C)[C@@H]1C[C@@H]1C[C@H](OC(C)=O)C(C)=C([C@@H](OC(C)=O)[C@@H]2OC(C)=O)C1(C)C
Looking at recorded values for pIC50, does a or b come in lower? Pick one and reply with its label.
b
(b: 4.47, a: 4.70)

----------
System: MCF7
experimental-details: Anticancer activity against estrogen-positive human MCF7 cells after 18 hrs by MTT assay
Type: functional, cell-based
condition-info: MCF7, 18 h
pIC50: −log10 of the molar value.
pIC50 reference

Take a look at these entries with their results.
| mol-smiles | pIC50 |
| --- | --- |
| C=C1[C@@H](OC(=O)[C@@H](O)[C@H](O)c2ccccc2)C[C@H](OC(C)=O)[C@]2(C)[C@@H]1C[C@@H]1C[C@H](OC(C)=O)C(C)=C([C@@H](OC(C)=O)[C@@H]2OC(C)=O)C1(C)C | < 4.30 |
| C=C1[C@@H](OC(=O)c2cccnc2)C[C@H](OC(C)=O)[C@]2(C)[C@@H]1C[C@@H]1C[C@H](OC(C)=O)C(C)=C([C@@H](OC(C)=O)[C@@H]2OC(C)=O)C1(C)C | < 4.30 |

Give its pIC50 value. Item: C=C1[C@H]2C[C@@H]3C[C@H](OC(C)=O)C(C)=C([C@@H](OC(C)=O)[C@H](OC(C)=O)[C@]2(C)[C@@H](OC(C)=O)C[C@@H]1O)C3(C)C
< 4.30
